Entry source: PubChem BioAssay (NCATS)

# assay_procedure: Stat Signaling Pathway (AID 446);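 note: ME-180 cervical cancer cells given 40 pM IL-6 alongside compound; SIE-controlled beta-lactamase reporter measured as 460/530 nm FRET emission ratio; % is set by controls: 0 for no effect and ±100 for the full control effect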
# condition_label: ME-180 (cervical carcinoma) SIE beta-lactamase reporter, IL-6 stimulated, 5 h; at 17.2 µM (top of the series) unless noted
Inconclusive results are not listed.
measurement_name: activity, negative = inhibition (%)
Reply numerically in %, unit not repeated.

Consider the following illustrative entries.
[
  {
    "compound": "Cc1cccc(N2CN=c3s/c(=C\\c4ccncc4)c(=O)n3C2)c1",
    "unit_of_measurement": "%",
    "measured": -0.937
  },
  {
    "compound": "N#CC12CCCCC1CC1CCCCC1(C#N)N2Cc1cccnc1 (centres undefined)",
    "unit_of_measurement": "%",
    "measured": 4.8
  },
  {
    "compound": "CCOC(=O)N1CCN(C2OC(=O)c3ccccc32)CC1 (centres undefined)",
    "unit_of_measurement": "%",
    "measured": 25.6
  },
  {
    "compound": "C=CCn1c(N)c(C(=O)OC(C)(C)C)c2nc3ccccc3nc21",
    "unit_of_measurement": "%",
    "measured": -6.1
  },
  {
    "compound": "CCC1CCCCN1c1nc(-c2ccncc2)nc2ccccc12 (centres undefined)",
    "unit_of_measurement": "%",
    "measured": -2.48
  }
]

query: Fill in: activity, negative = inhibition of C=CCN=C(C)C1=C(O)CCC1=O is ___
result: 20.3

query: One more compound: Nc1ncnc2nc(SCc3ccccc3)[nH]c12
result: -9.74

query: One more compound: CC1=C(c2ccc(Cl)cc2)[N+](=O)C(C)(C)N1[O-]
result: -0.945

====

# Test system: CP297
# assay_procedure: qHTS profiling for inhibitors of Plasmodium falciparum proliferation (AID 504749); note: nearly all actives have a fitted effect of over 60% in size
# condition_label: P. falciparum in erythrocytes, SYBR Green DNA, 72 h; series mostly up to 28.7 µM
Inconclusive results are not listed. Active and inactive are the calls of the source. Calls follow the shape of the dose curve; as a rule, active = well fitted inhibition curve with a large enough effect; inconclusive = small, poorly fitted or top-dose-only effect; inactive = flat fitted curve, though single readings scatter.
Result category, one only: active, inactive

[
  {
    "compound": "CC[C@H](C)[C@H]1O[C@]2(CC[C@@H]1C)C[C@@H]1C[C@@H](C/C=C(\\C)[C@H](O[C@@H]3C[C@H](OC)[C@H](O[C@@H]4C[C@H](OC)[C@@H](O)[C@H](C)O4)[C@H](C)O3)[C@@H](C)/C=C/C=C3\\CO[C@@H]4[C@H](O)C(C)=C[C@@H](C(=O)O1)[C@]34O)O2",
    "assigned_class": "active"
  },
  {
    "compound": "CNC1=CN(O)C(c2ccccc2)=c2cc(Cl)ccc2=N1",
    "assigned_class": "active"
  },
  {
    "compound": "C/C(=C(/CCOC(=O)C(C)C)SS/C(CCOC(=O)C(C)C)=C(\\C)N(C=O)Cc1cnc(C)nc1N)N(C=O)Cc1cnc(C)nc1N",
    "assigned_class": "inactive"
  }
]

query: Test call, this compound: Nc1nc(Cl)nc2c1ncn2[C@@H]1O[C@H](CO)[C@H](O)C1F (stereo partly drawn)
result: inactive

query: One more compound: COc1ccc2cc1Oc1cc3c(cc1OC)CC[N+](C)(C)C3Cc1ccc(cc1)Oc1c(OC)c(OC)cc3c1C(C2)[N+](C)(C)CC3 (stereo not drawn)
result: inactive

query: One more compound: Nc1nc(F)nc2c1ncn2[C@@H]1O[C@H](CO)[C@@H](O)[C@H]1O
result: inactive

query: One more compound: Cc1cn([C@H]2CC(F)[C@@H](CO)O2)c(=O)[nH]c1=O (stereo partly drawn)
result: inactive

query: One more compound: NC(C(=O)O)c1ccc(O)cc1 (stereo not drawn)
result: inactive
